System: normal primary NK cells, pool 1 (3 donors) (IL-2 2.5 ng/mL)
Assay: relative IC50 (inflection point of fitted viability curve, relative to fitted max inhibition); higher = less sensitive
Details: 72 h
I'd be grateful if you could share measured relative IC50 for these entries.
# output: bare number, implied unit nM

Which relative IC50 is reported for this compound? c1ccc2c(CCNc3ccc(Nc4ccncc4)cc3)c[nH]c2c1
914

// same read-out, input: COc1cc(OC2CCN(C)CC2)ccc1Nc1ncc2c(n1)n(C1CCCC1)c(=O)n2C
3160

// same read-out, input: COc1c(C)cnc(Cn2cnc3c(Cl)nc(N)nc32)c1C
181

// same read-out, input: O=C(Nc1cccnc1)N1CCC(Cc2cccc(Oc3ccc(C(F)(F)F)cn3)c2)CC1
2860

// same read-out, input: C=CCc1cccc(/C=N/NC(=O)CN2CCN(Cc3ccccc3)CC2)c1O
2890

// same read-out, input: CCc1cncnc1N1CCN(Cc2nc3ccc(C(F)(F)F)cc3[nH]2)CC1
1790

// same read-out, input: Nc1nc2[nH]cnc2c(=S)[nH]1
2100

// same read-out, input: CN1CCC(CNc2ccc3ncc(-c4cccc(OC(F)(F)F)c4)n3n2)CC1
2200

// same read-out, input: CN(C)CCOc1ccc(/C(=C(/CCCl)c2ccccc2)c2ccccc2)cc1
3740
